These entries and their values trace back to patent US20240270715A1.

Test: Caco-2 permeability assay (CacoReady kit)
Format: in vitro ADME
Conditions: human
Recorded Papp by entry

As a guide, the following entries are already answered.
>  <Molecule>
CCNC(=O)C(=O)CC[C@H](NC(=O)c1cc2ccccc2s1)C(=O)Nc1cccn(CC(=O)NC2C3CC4CC(C3)CC2C4)c1=O (stereo partly drawn)

>  <Papp>
1 to 10 ×10⁻⁶ cm/s

$$$$
>  <Molecule>
CCNC(=O)C(=O)CC[C@H](NC(=O)c1ccnn1C)C(=O)Nc1cccn(CC23CC4CC(CC(C4)C2)C3)c1=O

>  <Papp>
< 1 ×10⁻⁶ cm/s

$$$$
>  <Molecule>
CCNC(=O)C(=O)CC[C@H](NC(=O)c1ccncc1)C(=O)Nc1cccn(CC(=O)NC23CCC(CC2)C3)c1=O

>  <Papp>
< 1 ×10⁻⁶ cm/s

$$$$

Can you share its Papp? I mean this molecule: CCNC(=O)C(=O)CC[C@H](NC(=O)c1csc2nc(C)cn12)C(=O)Nc1cccn(CC(=O)NC2C3CC4CC(C3)CC2C4)c1=O (stereo partly drawn) < 1 ×10⁻⁶ cm/s

Next entry: CCNC(=O)C(=O)CC[C@H](NC(=O)c1cncnc1C)C(=O)Nc1cccn(CC(=O)NC2C3CC4CC2CC(C(=O)O)(C4)C3)c1=O (stereo partly drawn) < 1 ×10⁻⁶ cm/s

###

Recorded logD by entry
Experiment: Log D by shake flask method (octanol / PBS pH 7.4, HPLC)
Assay type: physicochemical
Conditions: octanol / PBS pH 7.4, shake flask; read-out: logD

>  <Molecule>
CCNC(=O)C(=O)CC[C@H](NC(=O)c1cc2ccc(N(C)C)cc2o1)C(=O)Nc1cccn(CC(=O)NC23CC(C2)C3)c1=O [Compound I-109]

>  <Quantity>
logD

>  <Endpoint value>
< 1

$$$$

Now examine the next entry.
Can you share its logD? I mean this molecule: CCNC(=O)C(=O)CC[C@H](NC(=O)c1oc2ccccc2c1Cl)C(=O)Nc1cccn(CC(=O)NC2C3CC4CC(C3)CC2C4)c1=O (stereo partly drawn) [Compound I-32] 3 to 5

###

Experiment: Log D by shake flask method (octanol / PBS pH 7.4, HPLC)
Assay type: physicochemical
Details: octanol / PBS pH 7.4, shake flask; read-out: logD
Recorded logD by entry

As a guide, the following entries are already answered.
>  <Molecule>
CCNC(=O)C(=O)CC[C@H](NC(=O)c1cncn1C)C(=O)Nc1cccn(CC(=O)NC23CC4(C)CC(C)(CC(C)(C4)C2)C3)c1=O

>  <Quantity>
logD

>  <Endpoint value>
1 to 3

$$$$
>  <Molecule>
CCNC(=O)C(=O)CC[C@H](NC(=O)c1ccncc1)C(=O)Nc1cccn(CC(=O)NC23CCC(CC2)C3)c1=O

>  <Quantity>
logD

>  <Endpoint value>
< 1

$$$$
>  <Molecule>
CCNC(=O)C(=O)CC[C@H](NC(=O)c1cncc(C(=O)O)c1)C(=O)Nc1cccn(CC(=O)NC(C)C23CC4CC(CC(C4)C2)C3)c1=O (stereo partly drawn)

>  <Quantity>
logD

>  <Endpoint value>
3 to 5

$$$$
>  <Molecule>
CCNC(=O)C(=O)CC[C@H](NC(=O)c1oc2ccccc2c1CC)C(=O)Nc1cccn(CC(=O)NC23CC(C2)C3)c1=O

>  <Quantity>
logD

>  <Endpoint value>
< 1

$$$$
>  <Molecule>
CCC(CC)CNC(=O)Cn1cccc(NC(=O)[C@H](CC/C=C/C(=O)OC)NC(=O)c2cncn2C)c1=O [Ref. 2, reference compound]

>  <Quantity>
logD

>  <Endpoint value>
1 to 3

$$$$
>  <Molecule>
CCNC(=O)C(=O)CC[C@H](NC(=O)c1oc2ccccc2c1C)C(=O)Nc1cccn(CC(=O)N[C@H]2C[C@H]3CC[C@]2(C)C3(C)C)c1=O

>  <Quantity>
logD

>  <Endpoint value>
3 to 5

$$$$
>  <Molecule>
CCNC(=O)C(=O)CC[C@H](NC(=O)c1nc(C2(C)CC2)no1)C(=O)Nc1cccn(CC(=O)NC2C3CC4CC2CC(C(N)=O)(C4)C3)c1=O (stereo partly drawn)

>  <Quantity>
logD

>  <Endpoint value>
< 1

$$$$
>  <Molecule>
CCNC(=O)C(=O)CC[C@H](NC(=O)c1sc(C(F)(F)F)nc1Br)C(=O)Nc1cccn(CC(=O)NC2C3CC4CC(C3)CC2C4)c1=O (stereo partly drawn)

>  <Quantity>
logD

>  <Endpoint value>
1 to 3

$$$$

Now examine the next entry.
Can you share its logD? I mean this molecule: CCNC(=O)C(=O)CC[C@H](NC(=O)c1oc2ccccc2c1C)C(=O)Nc1cccn(CC(=O)NC23CC(C2)C3)c1=O < 1

###

Molecular target: recombinant human transglutaminase 2 (Homo sapiens, UniProt P21980)
Sequence (P21980 whole entry): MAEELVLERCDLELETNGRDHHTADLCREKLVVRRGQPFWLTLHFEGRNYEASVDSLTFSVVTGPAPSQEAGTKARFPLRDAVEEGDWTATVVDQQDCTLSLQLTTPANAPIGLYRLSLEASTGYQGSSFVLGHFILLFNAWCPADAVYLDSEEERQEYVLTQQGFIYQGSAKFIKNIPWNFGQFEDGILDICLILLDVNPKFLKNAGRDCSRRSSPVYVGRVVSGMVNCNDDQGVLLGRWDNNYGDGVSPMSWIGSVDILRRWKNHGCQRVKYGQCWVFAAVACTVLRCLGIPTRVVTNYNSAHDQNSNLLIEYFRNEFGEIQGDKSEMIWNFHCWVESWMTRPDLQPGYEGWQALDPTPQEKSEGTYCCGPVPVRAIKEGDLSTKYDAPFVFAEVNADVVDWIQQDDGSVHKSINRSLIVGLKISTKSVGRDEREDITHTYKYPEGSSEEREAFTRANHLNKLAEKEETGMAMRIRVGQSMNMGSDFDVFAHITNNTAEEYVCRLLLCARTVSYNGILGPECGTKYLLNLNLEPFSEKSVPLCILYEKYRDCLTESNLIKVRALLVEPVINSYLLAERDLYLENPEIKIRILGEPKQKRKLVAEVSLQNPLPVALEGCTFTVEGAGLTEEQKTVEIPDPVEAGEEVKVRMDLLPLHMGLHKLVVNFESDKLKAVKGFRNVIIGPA
Assay: Transglutaminase assay: incorporation of dansylcadaverine into dimethylcasein (DCC-assay)
Assay type: biochemical
Details: recombinant human TG2 10 nM, dansylcadaverine/dimethylcasein; read-out: IC50 TG2
Experimental: To illustrate the advantage of branched alkyl moieties over aromatic moieties, we refer to reference compounds Ref. 2 (ZED1227, U.S. Pat. No. 9,434,763 B2) and Ref. 3 (A8, ZED1047). […] For the determination of potency of inhibitors against tissue transglutaminase, the incorporation of dansylcadaverine into dimethylcasein (Zedira product T036, Lorand et al., Anal Biochem, 1971, 44:221-31) was measured using recombinant human transglutaminase 2 (Zedira Product T022). […]
Recorded IC50 by entry

As a guide, the following entries are already answered.
>  <Molecule>
CCNC(=O)C(=O)CC[C@H](NC(=O)c1cnsn1)C(=O)Nc1cccn(CC23CC4CC(CC(Br)(C4)C2)C3)c1=O

>  <IC50>
150 to 600 nM

$$$$
>  <Molecule>
CCNC(=O)C(=O)CC[C@H](NC(=O)c1cncc(C(=O)O)c1)C(=O)Nc1cccn(CC(=O)NC(C)C23CC4CC(CC(C4)C2)C3)c1=O (stereo partly shown)

>  <IC50>
150 to 600 nM

$$$$
>  <Molecule>
CCNC(=O)C(=O)CC[C@H](NC(=O)c1cnc(C)n1C)C(=O)Nc1cccn(CC(=O)NC23CC4CC(CC(C)(C4)C2)C3)c1=O

>  <IC50>
600 to 3500 nM

$$$$
>  <Molecule>
CCNC(=O)C(=O)CC[C@H](NC(=O)c1cc(C#N)cn1C)C(=O)Nc1cccn(CCCC23CC4CC(CC(C4)C2)C3)c1=O

>  <IC50>
600 to 3500 nM

$$$$
>  <Molecule>
CCNC(=O)C(=O)CC[C@H](NC(=O)c1cc2ccccc2s1)C(=O)Nc1cccn(CC(=O)NC2C3CC4CC(C3)CC2C4)c1=O (stereo partly shown)

>  <IC50>
< 150 nM

$$$$

I'm curious: which IC50 was measured for CCNC(=O)C(=O)CC[C@H](NC(=O)c1cc2ccccc2nn1)C(=O)Nc1cccn(CC(=O)NC23CC(C2)C3)c1=O tested on recombinant human transglutaminase 2 (Homo sapiens, UniProt P21980)? 600 to 3500 nM

Next entry: CCNC(=O)C(=O)CC[C@H](NC(=O)c1nncs1)C(=O)Nc1cccn(CC(=O)NC23CC(C2)C3)c1=O 150 to 600 nM

Next entry: CCNC(=O)C(=O)CC[C@H](NC(=O)c1noc(C)n1)C(=O)Nc1cccn(CC(=O)NC23CC(C2)C3)c1=O 600 to 3500 nM

Next entry: CCNC(=O)C(=O)CC[C@H](NC(=O)c1cnc(NC(C)=O)s1)C(=O)Nc1cccn(CC(=O)NC23CC(C2)C3)c1=O 600 to 3500 nM

Next entry: CCNC(=O)C(=O)CC[C@H](NC(=O)[C@@H]1CCCNC1)C(=O)Nc1cccn(CC(=O)NC2C3CC4CC2CC(Br)(C4)C3)c1=O (stereo partly shown) 150 to 600 nM

Next entry: CCNC(=O)C(=O)CC[C@H](NC(=O)c1cncn1C)C(=O)Nc1cccn(CC(=O)NC23CC4CC(CC(F)(C4)C2)C3)c1=O 150 to 600 nM

Next entry: CCNC(=O)C(=O)CC[C@H](NC(=O)[C@H]1CCNC1)C(=O)Nc1cccn(CC(=O)NC2C3CC4CC2CC(F)(C4)C3)c1=O (stereo partly shown) 150 to 600 nM

Next entry: CCNC(=O)C(=O)CC[C@H](NC(=O)c1cncn1C)C(=O)Nc1cccn(CC(=O)NC23CC4(C)CC(C)(CC(C)(C4)C2)C3)c1=O < 150 nM

###

Molecular target: recombinant human transglutaminase 2 (Homo sapiens, UniProt P21980)
Assay: Transglutaminase assay: incorporation of dansylcadaverine into dimethylcasein (DCC-assay)
Format: biochemical
Conditions: recombinant human TG2 10 nM, dansylcadaverine/dimethylcasein; read-out: IC50 TG2
Quantity: IC50

As a guide, the following entries are already answered.
>  <Compound>
CCNC(=O)C(=O)CC[C@H](NC(=O)c1cc(Br)c(Cl)s1)C(=O)Nc1cccn(CC(=O)NC2C3CC4CC(C3)CC2C4)c1=O (stereo partly drawn)

>  <IC50>
< 150 nM

$$$$
>  <Compound>
CCNC(=O)C(=O)CC[C@H](NC(=O)c1cnc(C)n1C)C(=O)Nc1cccn(CC(=O)NC23CC4CC(C)(CC(C)(C4)C2)C3)c1=O

>  <IC50>
150 to 600 nM

$$$$

I'm curious: which IC50 was measured for CCNC(=O)C(=O)CC[C@H](NC(=O)c1cncn1C)C(=O)Nc1cccn(CC(=O)NC23CC4CC(CC(C)(C4)C2)C3)c1=O tested on recombinant human transglutaminase 2 (Homo sapiens, UniProt P21980)? 150 to 600 nM
